Target: human Golgi α-mannosidase II (α-hGMII) (Homo sapiens (Human))
Sequence (Q16706 whole entry): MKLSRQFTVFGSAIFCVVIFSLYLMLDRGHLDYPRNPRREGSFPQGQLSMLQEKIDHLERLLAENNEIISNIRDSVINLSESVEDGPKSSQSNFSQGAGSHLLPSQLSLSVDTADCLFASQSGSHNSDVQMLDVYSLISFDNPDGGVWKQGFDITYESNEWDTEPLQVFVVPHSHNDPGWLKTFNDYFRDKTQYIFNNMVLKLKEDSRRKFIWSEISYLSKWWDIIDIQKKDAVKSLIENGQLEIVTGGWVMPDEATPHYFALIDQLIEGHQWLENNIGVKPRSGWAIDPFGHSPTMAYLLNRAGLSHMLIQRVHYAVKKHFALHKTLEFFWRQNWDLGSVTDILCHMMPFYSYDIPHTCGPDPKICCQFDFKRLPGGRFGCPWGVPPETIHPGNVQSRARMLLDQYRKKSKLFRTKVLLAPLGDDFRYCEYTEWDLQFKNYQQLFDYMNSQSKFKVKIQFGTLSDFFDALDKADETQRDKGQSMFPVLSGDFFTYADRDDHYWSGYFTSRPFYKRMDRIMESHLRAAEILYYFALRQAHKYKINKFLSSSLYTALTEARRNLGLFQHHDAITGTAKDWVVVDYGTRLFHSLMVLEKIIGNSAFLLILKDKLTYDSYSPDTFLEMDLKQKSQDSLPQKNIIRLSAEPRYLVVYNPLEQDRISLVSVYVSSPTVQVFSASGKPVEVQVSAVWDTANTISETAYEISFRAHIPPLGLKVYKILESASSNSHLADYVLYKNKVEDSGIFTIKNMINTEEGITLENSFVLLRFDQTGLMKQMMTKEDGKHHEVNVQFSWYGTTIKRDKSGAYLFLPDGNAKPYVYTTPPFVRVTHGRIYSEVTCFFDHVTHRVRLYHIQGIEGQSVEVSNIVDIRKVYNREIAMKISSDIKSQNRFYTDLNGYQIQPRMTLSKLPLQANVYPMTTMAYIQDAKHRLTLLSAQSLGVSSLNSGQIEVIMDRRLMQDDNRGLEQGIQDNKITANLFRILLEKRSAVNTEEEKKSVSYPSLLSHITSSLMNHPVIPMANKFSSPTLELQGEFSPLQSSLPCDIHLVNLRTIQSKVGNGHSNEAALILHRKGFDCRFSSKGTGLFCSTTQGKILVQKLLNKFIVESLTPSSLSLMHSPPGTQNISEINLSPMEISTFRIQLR
pIC50: −log10 of the molar value.
Readings of pIC50 for the listed molecules
Property name: pIC50

> print(dat)
                                   molecule  data.value
1  CCC[C@H]1CC[C@H](c2ccc(C(=O)NC[C@@H]3[C@@H](O)[C@@H](O)[C@H]4[C@H](O)CCCN43)cc2)CC1 [ACK902]        5.80
2  O[C@H]1[C@H]2[C@H](O)CCCN2C[C@H]1O [Swainsonine, swainsonine, reference compound]        7.40
3  O=C(NC[C@@H]1[C@@H](O)[C@@H](O)[C@H]2[C@H](O)CCCN21)c1ccc(-c2ccccc2)cc1 [ACK903]        6.72
4  COc1ccc(NC(=S)NC[C@@H]2[C@@H](O)[C@@H](O)[C@H]3[C@H](O)CCCN32)cc1 [ACK904]        6.10
5  O[C@@H]1[C@H](O)[C@@H](CNC(=S)Nc2ccccc2)N2CCC[C@@H](O)[C@H]12 [ACK905]        5.89
